Molecular target: GDP-loaded KRAS (1-169) G12C, C51S, C80L, C118S (Homo sapiens, UniProt P01116, C118S/C51S/C80L/G12C)
Construct: GDP-loaded KRAS (1-169) G12C, C51S, C80L, C118S
Test: Mass Spectrometry Reactivity Assay (MSRA): covalent adduct of compound and KRAS G12C, Percent Modification
Type: binding
Conditions: 5.0 μM compound, 0.017 hr
Procedure: Mass Spectrometry Reactivity Assay (MSRA) Compounds presented in the present invention covalently bind to KRAS G12C using MSRA to detect a covalent adduct of the exemplary compound and KRAS G12C. […] The percent of modified protein at the defined concentration of exemplary compound was calculated using the following formula: % mod=Num of modified peak/Sum of modified+unmodified. […]
property: MSRA (% modification) 5.0 μM 0.017 hr (%)

The cases that follow already have their MSRA (% modification) 5.0 μM 0.017 hr on record.
[[record]]
compound = "C=CC(=O)N1CCN(c2nc(Oc3cccc4c3CCN(C)C4)nc3c(Oc4c(Cl)c(F)cc5[nH]ncc45)nccc23)CC1 [Example 22I]"
property = "MSRA (% modification) 5.0 μM 0.017 hr"
unit_abbrev = "%"
test_value = 80

[[record]]
compound = "C=CC(=O)N1CCN(c2nc(Oc3cc4n(n3)CCN(C)C4)nc3c(Oc4c(Cl)c(F)cc5[nH]ncc45)nccc23)CC1 [Example 45I]"
property = "MSRA (% modification) 5.0 μM 0.017 hr"
unit_abbrev = "%"
test_value = 7

[[record]]
compound = "C=CC(=O)N1CCN(c2nc(O[C@@H]3CN(C)C[C@H]3C(F)F)nc3c(Oc4c(Cl)c(F)cc5[nH]ncc45)nccc23)CC1 (single isomer, unassigned) [Example 58I]"
property = "MSRA (% modification) 5.0 μM 0.017 hr"
unit_abbrev = "%"
test_value = 58

[[record]]
compound = "C=CC(=O)N1CCN(c2nc(O[C@@H]3CN(C)C[C@H]3OC)nc3c(Oc4c(C)c(Cl)cc5[nH]ncc45)nccc23)CC1 [Example 40I]"
property = "MSRA (% modification) 5.0 μM 0.017 hr"
unit_abbrev = "%"
test_value = 68

[[record]]
compound = "C=CC(=O)N1CCN(c2nc(Oc3cccc4c3CCN(C)C4)nc3c(Oc4c(Cl)c(Cl)cc5[nH]ncc45)nccc23)CC1 [Example 50I]"
property = "MSRA (% modification) 5.0 μM 0.017 hr"
unit_abbrev = "%"
test_value = 70

[[record]]
compound = "C=CC(=O)N1CCN(c2nc(O[C@@H]3CN(C)C[C@H]3OC)nc3c(Oc4c(Cl)c(F)cc5[nH]ncc45)nccc23)CC1 [Example 10I]"
property = "MSRA (% modification) 5.0 μM 0.017 hr"
unit_abbrev = "%"
test_value = 70

[[record]]
compound = "C=CC(=O)N1CCN(c2nc(O[C@@H]3CN(C(C)C)C[C@H]3OC)nc3c(Oc4c(Cl)c(F)cc5[nH]ncc45)nccc23)CC1 [Example 20I]"
property = "MSRA (% modification) 5.0 μM 0.017 hr"
unit_abbrev = "%"
test_value = 73

[[record]]
compound = "C=CC(=O)N1CCN(c2nc(O[C@@H]3CN(C)C[C@H]3OC)nc3c(Oc4c(Cl)c(F)cc5[nH]ncc45)nccc23)C[C@H]1C [Example 35I]"
property = "MSRA (% modification) 5.0 μM 0.017 hr"
unit_abbrev = "%"
test_value = 24

[[record]]
compound = "C=CC(=O)N1CCN(c2nc(O[C@@H]3CN(C)C[C@H]3C)nc3c(Oc4c(Cl)c(Cl)cc5[nH]ncc45)nccc23)CC1 (racemic) [Example 51I]"
property = "MSRA (% modification) 5.0 μM 0.017 hr"
unit_abbrev = "%"
test_value = 39

[[record]]
compound = "C#CCN1C[C@@H](OC)[C@H](Oc2nc(N3CCN(C(=O)C=C)CC3)c3cc(Cl)nc(Oc4c(Cl)c(F)cc5[nH]ncc45)c3n2)C1 [Example 40G]"
property = "MSRA (% modification) 5.0 μM 0.017 hr"
unit_abbrev = "%"
test_value = 83


P: C=CC(=O)N1CCN(c2nc(O[C@@H]3CN(C)CC[C@H]3C)nc3c(Oc4c(Cl)c(F)cc5[nH]ncc45)nccc23)CC1 (racemic) [Example 53I]
Q: C=CC(=O)N1CCN(c2nc(Oc3cccc4c3CCN(CC)C4)nc3c(Oc4c(C)ccc5[nH]ncc45)nccc23)CC1 [Example 31I]
Two entries are listed, P and Q . Which one carries the higher MSRA (% modification) 5.0 μM 0.017 hr? I would appreciate it if you answered with the label of your choice.
Q

Reference source: patent US10662204B2
